Assay protocol: soluble fraction after stress (log2 fold change); higher = more stays soluble; pooled small domains, quantitative proteomics;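 note: 20 min heating vs room temperature control held 20 min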
Reported conditions: stress: 75 degC
Reported soluble fraction (log2) values for a set of sequences
Give the figure only, with no unit attached.

HMNPNPYIVLGVDKSMPFGEIKKVYQRKRREFHPDSLVAKGLPDELLQKAQDKFIAIQEAYKSIEKNQV; 0.44
HMLEAMDSDEAAKVIEQIVNERADFVRSKGMGAIGPLMGPVMGALRGKVDGKQANELLTAAIKKLL; 0.334
HMAAEEAFPGGRIVQNAEENRLQILFDEIPGEDVRAALKSHGFRWSPKNKAWQRQLTQNAEYDARRILGI; -0.06

INPUT: State its soluble fraction (log2): HMKKIDVEVVRSQLIAWMADNGKSQAEVSKSMGISASALSMFIKGTYTGDNEQIGRKAAALMDLVHRQSA
OUTPUT: -1.41

INPUT: Entry HMLSRNEWLVMEALWERPSTLMELVRQLGQEPPGWAKSTTATMVRRMEEKGLIRHEAGSKARVYHP needs its soluble fraction (log2) filled in; supply it.
OUTPUT: -1.82

---

Assay protocol: soluble fraction after stress (log2 fold change); higher = more stays soluble; pooled small domains, quantitative proteomics
Reported conditions: stress: 75 degC
Endpoint: soluble fraction (log2)
# print the numeric value only

Recorded results for 8 sequences are shown here.
HMQRYYDVLGLQKGVSPEELKKTYRELSKKYHPDAHHNSPLRDLAEAKFKEINEAYEKIKEFLDNNF; -0.207
HMATVHPIRIQGGMTTQQGGKTVWLWVSDEGRLMTEDEIAGESGGTVSSRMVRGVRVLTGTGVIYG; -1.96
HMQDTYLYPVQHNGKVRLQVELPAKGLPEDLVRLALAHPKVVEWLNGRIPTKTIAVPGRIINMVLPNQ; -0.638
HMSSWAEGLTERERHTLMWITKGLSNKLIARELGISDSTVKVYVKNLLRKLNVNSRLELAAWVHTHPL; -1.2
HMGGPTARQMEVLSLIAQGLPNKRIADELGIAERTVKLHITALLDSLGARNRTHLLVVARERGM; -2.16
HMEAKQMDAWIVSEAKRQGGKIEPAAAYELSRHTATDTSIASQEIAKLLMYVDFKRPVTREDVVELVSA; 0.0579
HMLGITEGSLVRVIRSPNFGKIGTVAELPAELRMMESETMVRIAIVEIEGTNFEIPRSNLEVLET; -1.6
HMGQVPPLTRRETEIARLVSRGLSNKEIASTLVISPRTAEGHVEHILDKLGFSSRTQIATWLNEQTRNGK; -0.14

INPUT: Give the value of soluble fraction (log2) reported for the following: HMNDMPELLSIKEASQWATEYLNKNVTTSNIAYLIQYGRIRKIGNNGSTQVLKDDLVKYYKDQK
OUTPUT: -0.11

INPUT: # return recorded soluble fraction (log2) for entry HMLPLLEYLDPFTGKKTYTYLNPDTQHPIFTYYSYQDDKTGRTAYSYIDPLTGKAVNSDEPPMDILYD
OUTPUT: -0.676

---

Assay protocol: soluble fraction after stress (log2 fold change); higher = more stays soluble; pooled small domains, quantitative proteomics
Reported conditions: stress: 75 degC
Parameter threshold = -2. Response is class 1 when soluble fraction (log2) meets or exceeds it, else class 0.

INPUT: State whether the measured soluble fraction (log2) reaches -2, counting equality as reaching it, for HMKAETILAIPENQPERLFPNNEDEARKIYRDLAREWHTDRNKSPKAQDVFSHLSKLYDIVIDRIKNKTWT
OUTPUT: class 1

INPUT: Could you please find out whether HMIPDAIDPDGRFKWRAGEAVVGFGRHAGEPLKKIAIENPEFLRWILKADFSTDVKKIASDALKGYFPEK has soluble fraction (log2) that meets -2 or exceeds it?
OUTPUT: class 1

INPUT: Hi team, for HMETVRLSVDAQGAYYWNEQRVDDSALPDLLREASGRKPQPDLHIRGDKAVRYERVAEAMAAAQRAGLKKI , is the recorded soluble fraction (log2) at or above -2?
OUTPUT: class 1

INPUT: Given HMKDMWNRIRRARLSAGLSQAALAKETGVRRSAVTQWEKEGGTSPSVANLARIAVVTQVHFEWLATGRGPG , state whether its soluble fraction (log2) is at least -2.
OUTPUT: class 0

INPUT: Is it the case that HMNEWSIDINLADEKQWTAKTKLSPAIIQNIIRYKNYLGGFTNLNQIKKVYGFTEANYYLLKPHLQLGK has soluble fraction (log2) reaching or exceeding -2?
OUTPUT: class 1

INPUT: Decide: soluble fraction (log2) of HMVVKSPLEMAFDKFREMRKKIRKPMTERAEELIWKELSKLAGEDSDLKIEILEQSIRNGWQDVYAVK >= -2?
OUTPUT: class 1

INPUT: Has HMGSEGVKVEDTIGMSEAEATATLGKSGFVVNKTESHDPYIKAGNVITQSPAAGSKAPKGTTVTLTISLGP a recorded soluble fraction (log2) greater than or equal to -2?
OUTPUT: class 1

---

Reported soluble fraction (log2) is given for each of the following sequences.
Assay protocol: soluble fraction after stress (log2 fold change); higher = more stays soluble; pooled small domains, quantitative proteomics
Reported conditions: stress: 75 degC
// response body must contain only the number

HMDAMLSEQLREKRGELLIEVDAIAGNALRWATLSAEQQDAWAVYRQALLDVPQQAGFPNDVVWPINPN; -0.42

INPUT: Supply recorded soluble fraction (log2) for HMREITVEELYELEGIRIVGTIPGISAWVAESGRQMVFLVGQKVKGHDLLEVGESRVVLRKGDSVVNVLL here.
OUTPUT: -1.56

INPUT: Find the measured soluble fraction (log2) of HMELTDSLTENAKKLYSVLTTEPRHIDDLSEEAKLSSADTLAALTELELYSLVALSEGKHYYK and report it.
OUTPUT: -0.349

---

Assay protocol: soluble fraction after stress (log2 fold change); higher = more stays soluble; pooled small domains, quantitative proteomics
Reported conditions: stress: 75 degC
Classify by measured soluble fraction (log2): Y if it is equal to or exceeds -0.2, N if it is smaller.

Use these answered entries as a reference point.
HMQISDNTILEDAVSRIIDENPKSVSDYFQGKEAVVGFFIGQIMRETKGTANPKIAREIVISHLEAI; N
HMEYEETMSQIKHNLNLLPRQQRVIIEMAKFDELTPAEIAKQLGISVQTVRNQLSTGLKKLRQLL; Y
HMDVLKVFSHNVRRYRTQLGLSQETVAFRTGLHRTYISAVERGKRSISLDNIQKIADALEVETYLLFI; N
HMPELPEVETSRRGIEPHLVGATILHAVVRNGRLRWPVSEEIYRLSDQPVLSVQRRAKYLLLELQA; Y
HMGTVVKRNALVHAWTEFNGGRASTKLLALGPGKVGEWIELENPQSGRKLRGEVQVDGSVRLG; Y
HMSMQIILLDKVVNLGGLGDVVKVKDGYARNYLIPQGKAKRANTANLAEFEARRVELERLAAEQLAQAQA; Y
HMNINHEINIKSKKKISILENNPNLSQFYLTKNPDQYNYNLVFSDKSELNKLKEKLESDNEVEDIDIRYG; Y
HMYSSIIGIAFTRAENKPAAPTGGSYSNPHPVDGNWKAAPYDGDGNLWYSIRHFNENVDIQDREWSDPTLG; N

INPUT: Tell me whether soluble fraction (log2) is at least -0.2 here: HMNLYHALDQQGEVYLTIPPRQSGRGKVTLMIDGRVREMDAMTDGDALKTGSKVRVTEILDENALKVEAM
OUTPUT: Y

---

Assay protocol: soluble fraction after stress (log2 fold change); higher = more stays soluble; pooled small domains, quantitative proteomics
Reported conditions: stress: 75 degC
Give met when the value for soluble fraction (log2) is at least -0.09. Give not met when it is less.

HMSYQADEIKEKLIDILQNQKTGLSGLEISERIGINRITMTKYLQVFAAEGFIKQKNIGNVIIWFIEDGTE; not met
HMQLGEEAGDELVAIVRSVINDNDKALADYLAGKSSALKFLLGQVMRQTKGRADHALVQSLLEAELEAL; met
HMVDDNFGLGEVTDQNYLTVLGRALDLIGWTDEQADSYSLKTFGVPHWDELGRSQAEKLVAHLIGLLKEQM; met
HMLAEEAFNKQAATAGYVYRDGSYHPAASVAQYDAMPRNYRTNTMAQELSRSQVESQLQQSQ; met
HMPFDRTVQLAGARARQLQALPRYREVLRLLDEGMNPREIGQVLDPPVTRQRASALIQQAKRAQMLGLFED; not met
HMYPDNEQTLSKLAFEFFKKRNIPISQSNINQIVTKSLGDRENLYNELLKIENFSTSGKKLTDNVIKKLIN; met

# next sequence below
INPUT: Does the sequence HMEQRREEFILLAKELLEKELRKQNLEVHENLKPDVLNDVAKRLGMVSMDDLLAAVGDGKITPGTVVSKIV have recorded soluble fraction (log2) that is -0.09 or more?
OUTPUT: met
